Cited source: patent US20210301005A1

Assignment: determine reported Blocking IC50 for the given binders.
Target: human TGFβ1, mature receptor-binding domain (human, UniProt P01137 279-390)
Sequence (P01137 279-390 limits assumed): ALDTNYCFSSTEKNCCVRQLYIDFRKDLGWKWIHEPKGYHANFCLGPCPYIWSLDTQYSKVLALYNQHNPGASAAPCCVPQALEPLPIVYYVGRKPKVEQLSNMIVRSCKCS
Assay: cell-based or functional assay

Given item 21D1 (antibody, V domains shown) VH: QVQLVQSGAEVKKPGASVKVSCKASGYTFTDYNIHWVRQAPGQGLEWMGYIYPYDGETGYNQKFKSRVTMTTDTSTSTAYMELRSLRSDDTAVYYCARGYRWFAYWGQGTLVTVSS VL: DIQMTQSPSSLSASVGDRVTITCRASSSVPYMHWFQQKPGKAPKSLIYATSNPAYGVPSRFSGSGSGTDFTLTISSLQPEDFATYYCQQWDLNPPAFGQGTKLEIKR , the value recorded as its Blocking IC50 is 0.013 nM

// Blocking IC50 lookup, binder = 6F12 (antibody, V domains shown, anti-TGFβ2; called rat and rabbit in different places; also called rat 6F12; r6F12) VH: QVQLKESGPGLVQPSQTLSLTCTVSGFSLTTYNVHWVRQPPGKGLEWMGLIWNTGGTRYNSALKSRLSISKDTSKSQVFLRMNSLQTEDTATYYCARDPVPNKWHFDFWGPGTMVTVSS VL: DIQMTQSPASLSASLGETVTIECLASEDIYSNLAWYQQKPGKSPQLLIYDARSLQDGVPSRFSGSESGPQYSLEINSLQSEDAVTYFCQQHHAYPFTFGSGTKLEIK , result: > 500 nM

Noted for 4A11 (antibody, V domains shown, anti-TGFβ2/3, recombinant rabbit monoclonal; some paragraphs print the H/L pair as 32/33; also called Rb1.4A11; Rbt 4A11) VH: QSLEESGGRLVTPGTPLTLTCTVSGFSLSSYTVNWVRQAPGKGLEWIGYISYGGSAYYASWANGRFTISKTSATVDLKITSPTTEDTATYFCARHMQVGGAPTGSMAAFDPWGPGTLVTVSS VL: AAVLTQTPSPVSAAVGGTVSISCQSSQSVYNNNYLSWFQQKPGQPPKLLIYGASTLTSGVPSRFKGSGSGTQFTLTISDVQCDDAATYYCAGGYSGSSDKYAFGGGTEVVVKG : its Blocking IC50 reads > 500 nM

The recorded Blocking IC50 for 2A10 (antibody, V domains shown, anti-TGFβ3; also called rat 2A10; r2A10) VH: EVQLVESGGGLVQPKGSLKLSCAASGFDFNSYGMSWVRQAPGKGLDLVADIVSKTYNYTTYYSDSVKDRFTISRDDSQSMVYLQMDNLKTEDTALYYCTVAPGGSFDYWGQGVMVTVSS VL: DIVLTQSPALAVSLGQRATISCRASQSVSISRFNLMHWYQHKPGQQPKLLIYRASNLASGIPARFSGSGSGTDFTLTINPVQADDLATYYCQHSRESPWTFGGGTKLEIK is > 500 nM
